Quick note: these are pIC50 numbers for system: Cathepsin D (Homo sapiens)
Sequence (P07339 65-162 limits assumed): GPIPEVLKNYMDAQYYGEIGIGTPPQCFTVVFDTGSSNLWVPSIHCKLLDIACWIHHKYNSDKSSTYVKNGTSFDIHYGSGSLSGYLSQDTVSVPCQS
Sequence (P07339 169-412 limits assumed): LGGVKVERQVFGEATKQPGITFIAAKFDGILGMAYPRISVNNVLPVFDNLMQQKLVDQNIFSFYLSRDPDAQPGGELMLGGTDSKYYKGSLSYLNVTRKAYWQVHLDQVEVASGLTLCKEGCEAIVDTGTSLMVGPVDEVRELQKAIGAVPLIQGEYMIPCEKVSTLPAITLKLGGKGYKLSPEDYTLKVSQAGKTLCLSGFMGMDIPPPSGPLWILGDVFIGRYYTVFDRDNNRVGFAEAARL
Just the number, please; pIC50 means minus log10 of the concentration in mol/L.

Query block: Form field - read-out: pIC50; system: Cathepsin D (Homo sapiens); submitted item: Cc1coc([C@H]2C[C@H]3[C@@H](C)SC(N)=N[C@@]3(c3ccc(F)cc3F)CO2)n1
Result block: 4.80

Query block: Form field - read-out: pIC50; system: Cathepsin D (Homo sapiens); submitted item: Cc1coc([C@H]2C[C@H]3CSC(N)=N[C@@]3(c3ccc(F)cc3F)CO2)n1
Result block: 4.86

Query block: Form field - read-out: pIC50; system: Cathepsin D (Homo sapiens); submitted item: Cn1cc([C@H]2C[C@H]3CSC(N)=N[C@@]3(c3ccc(F)cc3F)CO2)cn1
Result block: 4.88

Query block: Form field - read-out: pIC50; system: Cathepsin D (Homo sapiens); submitted item: Cc1cc([C@H]2C[C@H]3[C@@H](CF)SC(N)=N[C@@]3(c3ccc(F)cc3F)CO2)on1
Result block: 5.10

Query block: Form field - read-out: pIC50; system: Cathepsin D (Homo sapiens); submitted item: Cc1cc([C@H]2C[C@H]3CSC(N)=N[C@@]3(c3ccc(F)cc3F)CO2)on1
Result block: 5.03

====

- experimental-target: CYP2C19 (Homo sapiens, UniProt P33261)
- Sequence (P33261 whole entry): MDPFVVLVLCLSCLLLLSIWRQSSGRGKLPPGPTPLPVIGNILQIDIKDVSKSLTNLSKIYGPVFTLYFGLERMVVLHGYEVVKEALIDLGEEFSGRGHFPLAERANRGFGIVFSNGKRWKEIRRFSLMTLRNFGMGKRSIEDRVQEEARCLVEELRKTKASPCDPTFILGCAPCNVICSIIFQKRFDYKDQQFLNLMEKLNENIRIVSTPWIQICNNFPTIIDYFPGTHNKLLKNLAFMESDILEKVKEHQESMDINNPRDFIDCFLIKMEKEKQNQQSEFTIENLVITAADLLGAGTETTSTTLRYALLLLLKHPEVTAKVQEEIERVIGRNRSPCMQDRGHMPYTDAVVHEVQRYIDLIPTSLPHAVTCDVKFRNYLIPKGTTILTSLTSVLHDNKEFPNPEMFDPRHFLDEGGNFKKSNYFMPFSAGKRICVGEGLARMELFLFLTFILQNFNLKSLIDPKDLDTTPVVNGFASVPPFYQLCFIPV
- experiment: Drug metabolism assessed as recombinant human CYP2C19-mediated metabolism after 60 mins by LC/MS analysis
- Format: ADME
- test-parameters: read-out: Drug metabolism
Criterion: metabolised at 1 h strictly under 30%. Met: condition met. Not met: condition not met.

Query block: Would you kindly verify if metabolised at 1 h of Cc1coc([C@H]2C[C@H]3[C@@H](CF)SC(N)=N[C@@]3(c3ccc(F)cc3F)CO2)n1 is strictly less than 30%?
Result block: condition met

Query block: Would you kindly verify if metabolised at 1 h of Cc1coc([C@H]2C[C@H]3[C@@H](C)SC(N)=N[C@@]3(c3ccc(F)cc3F)CO2)n1 is strictly less than 30%?
Result block: condition not met

Query block: Would you kindly verify if metabolised at 1 h of Cn1cc([C@H]2C[C@H]3[C@@H](CF)SC(N)=N[C@@]3(c3ccc(F)cc3F)CO2)cn1 is strictly less than 30%?
Result block: condition not met

Query block: Would you kindly verify if metabolised at 1 h of Cc1cc([C@H]2C[C@H]3[C@@H](C)SC(N)=N[C@@]3(c3ccc(F)cc3F)CO2)on1 is strictly less than 30%?
Result block: condition not met

Query block: Would you kindly verify if metabolised at 1 h of Cc1cc([C@H]2C[C@H]3[C@@H](CF)SC(N)=N[C@@]3(c3ccc(F)cc3F)CO2)on1 is strictly less than 30%?
Result block: condition not met

====

Give IC50 for every item shown.
- experimental-target: Voltage-gated inwardly rectifying potassium channel KCNH2 (Homo sapiens)
- Sequence (Q12809 whole entry): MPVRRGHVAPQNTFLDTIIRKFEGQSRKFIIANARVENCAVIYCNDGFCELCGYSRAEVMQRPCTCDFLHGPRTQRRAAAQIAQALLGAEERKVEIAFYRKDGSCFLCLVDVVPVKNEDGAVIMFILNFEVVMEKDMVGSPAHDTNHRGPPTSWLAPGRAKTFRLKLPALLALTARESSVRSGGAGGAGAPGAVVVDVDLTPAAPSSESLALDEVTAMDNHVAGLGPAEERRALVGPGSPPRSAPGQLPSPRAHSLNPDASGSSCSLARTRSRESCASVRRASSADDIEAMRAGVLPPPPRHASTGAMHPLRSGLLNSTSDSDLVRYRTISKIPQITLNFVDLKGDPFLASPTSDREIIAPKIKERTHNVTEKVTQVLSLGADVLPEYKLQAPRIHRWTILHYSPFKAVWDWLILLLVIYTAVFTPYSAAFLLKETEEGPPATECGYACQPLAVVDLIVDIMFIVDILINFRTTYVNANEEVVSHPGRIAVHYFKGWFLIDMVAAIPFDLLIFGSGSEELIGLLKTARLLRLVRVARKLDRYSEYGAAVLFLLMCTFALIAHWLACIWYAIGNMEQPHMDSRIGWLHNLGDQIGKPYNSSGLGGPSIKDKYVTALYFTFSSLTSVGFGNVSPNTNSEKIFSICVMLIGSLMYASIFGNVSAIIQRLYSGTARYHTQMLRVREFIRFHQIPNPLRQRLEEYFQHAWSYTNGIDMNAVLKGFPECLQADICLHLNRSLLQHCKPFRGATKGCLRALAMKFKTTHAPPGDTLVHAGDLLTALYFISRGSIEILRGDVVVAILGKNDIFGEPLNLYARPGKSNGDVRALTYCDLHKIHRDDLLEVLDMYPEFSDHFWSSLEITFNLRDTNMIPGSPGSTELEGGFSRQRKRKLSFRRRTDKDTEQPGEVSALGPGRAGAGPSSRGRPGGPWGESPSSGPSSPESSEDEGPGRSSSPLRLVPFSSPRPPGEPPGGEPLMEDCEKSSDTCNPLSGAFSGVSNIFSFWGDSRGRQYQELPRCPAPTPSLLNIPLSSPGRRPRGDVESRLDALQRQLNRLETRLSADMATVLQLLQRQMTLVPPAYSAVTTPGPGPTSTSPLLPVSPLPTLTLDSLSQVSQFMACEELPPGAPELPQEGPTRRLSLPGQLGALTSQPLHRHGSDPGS
- experiment: Inhibition of human ERG expressed in CHO cells
Provide only the numeric value, understood in µM.

Query block: Given Cc1cc([C@H]2C[C@H]3[C@@H](CF)SC(N)=N[C@@]3(c3ccc(F)cc3F)CO2)on1 , state its recorded IC50.
Result block: 10.1

Query block: Given Cc1cc([C@H]2C[C@H]3[C@@H](C)SC(N)=N[C@@]3(c3ccc(F)cc3F)CO2)on1 , state its recorded IC50.
Result block: 2.1

Query block: Given C[C@H]1SC(N)=N[C@@]2(c3ccc(F)cc3F)CO[C@@H](c3cnn(C)c3)C[C@@H]12 , state its recorded IC50.
Result block: 4.8

Query block: Given Cc1coc([C@H]2C[C@H]3[C@@H](CF)SC(N)=N[C@@]3(c3ccc(F)cc3F)CO2)n1 , state its recorded IC50.
Result block: 19.6

Query block: Given Cc1coc([C@H]2C[C@H]3[C@@H](C)SC(N)=N[C@@]3(c3ccc(F)cc3F)CO2)n1 , state its recorded IC50.
Result block: 4.8

Query block: Given Cc1cc([C@H]2C[C@H]3CSC(N)=N[C@@]3(c3ccc(F)cc3F)CO2)on1 , state its recorded IC50.
Result block: 1.6

Measured values drawn from ChEMBL document CHEMBL3421534 for this set.
